System: rodent lifetime carcinogenesis bioassay, tumor incidence TD50
procedure-summary: carcinogenic potency in animals, long-term in vivo studies, CPDB compilation (AID 1745844)
measurement-context: rat; strain Fischer 344; males; by gavage; site: esophagus; lesion: squamous-cell carcinoma + squamous-cell papilloma; dosed 94 weeks; study length 104 weeks

mol: CC(C)=CCl
TD50: 81.6 mg/kg/day

====

System: rodent lifetime carcinogenesis bioassay, tumor incidence TD50
procedure-summary: carcinogenic potency in animals, long-term in vivo studies, CPDB compilation (AID 1745844)
measurement-context: rat; strain IcoIbm:OFA (Sprague-Dawley derived); females; inhaled; site: nasal cavity, olfactory region, Bowman's gland; lesion: adenocarcinoma; dosed 102 weeks; study length 102 weeks
measurement-kind: TD50 (mg/kg/day)

mol: COc1ccc(C(=O)Nc2c(Cl)cncc2Cl)cc1OC1CCCC1
readout-value: 24.6

====

Test system: rodent lifetime carcinogenesis bioassay, tumor incidence TD50
procedure-summary: carcinogenic potency in animals, long-term in vivo studies, CPDB compilation (AID 1745844)
measurement-context: rat; strain Norwegian albino; females; in feed; site: ileum; lesion: several types; types named in the paper; dosed 58 weeks; study length 58 weeks

mol: O=c1c(O)c(-c2ccc(O)c(O)c2)oc2cc(O)cc(O)c12
TD50: 5.12 mg/kg/day

====

Tested on: rodent lifetime carcinogenesis bioassay, tumor incidence TD50
procedure-summary: carcinogenic potency in animals, long-term in vivo studies, CPDB compilation (AID 1745844)
measurement-context: rat; strain Sprague-Dawley; females; in feed; site: mammary gland; lesion: several types; types named in the paper; dosed 44 weeks; study length 66 weeks

mol: OCN(CO)c1nc(N(CO)CO)nc(N(CO)CO)n1
TD50: 11.9 mg/kg/day

====

Tested on: rodent lifetime carcinogenesis bioassay, tumor incidence TD50
procedure-summary: carcinogenic potency in animals, long-term in vivo studies, CPDB compilation (AID 1745844)
measurement-context: rat; strain Wistar; males; in drinking water; site: lung; lesion: carcinoma, combined glandular and squamous type; dosed 45 weeks; study length 52 weeks
measurement-kind: TD50 (mg/kg/day)

compound: CC(O)CN(CC(C)O)N=O (stereo unspecified)
readout-value: 9.48

====

Tested on: rodent lifetime carcinogenesis bioassay, tumor incidence TD50
procedure-summary: carcinogenic potency in animals, long-term in vivo studies, CPDB compilation (AID 1745844)
measurement-context: rat; strain Charles River CD (Sprague-Dawley); males; in feed; site: testis; lesion: interstitial-cell tumor; dosed 104 weeks; study length 104 weeks
This section presents compounds with their documented TD50 values.

mol: O=C1c2ccccc2C(=O)N1SC(Cl)(Cl)Cl
TD50: 839 mg/kg/day
//
mol: NC(=O)OCC(COC(N)=O)c1ccccc1
TD50: 1310 mg/kg/day
//
mol: O=P(OC(CCl)CCl)(OC(CCl)CCl)OC(CCl)CCl
TD50: 35 mg/kg/day
//
mol: O=[N+]([O-])OCC(CO[N+](=O)[O-])O[N+](=O)[O-]
TD50: 405 mg/kg/day
//
mol: Cc1ccc(C)c(OCCCC(C)(C)C(=O)O)c1
TD50: 516 mg/kg/day

====

Test system: rodent lifetime carcinogenesis bioassay, tumor incidence TD50
procedure-summary: carcinogenic potency in animals, long-term in vivo studies, CPDB compilation (AID 1745844)
measurement-context: hamster; strain Syrian Golden; males; inhaled; site: nasal cavity; lesion: adenomatous polyp; dosed 52 weeks; study length 104 weeks

mol: NN
TD50: 4.16 mg/kg/day
